Where do these numbers come from? They come from patent US8481456B2.

- System: apple scab (Venturia inaequalis)
- assay-protocol: Venturia test (apples)/preventive
- run-parameters: Venturia inaequalis, 240 h, read-out: Efficacy in %, found
observed-property: pest or weed control at 200 ppm
Provide a numeric answer, followed by its unit.

The compound O=C1C=C(N(Cc2ccc(Cl)nc2)CC(F)F)CO1 showed pest or weed control at 200 ppm equal to 8%

###

In this section we review reported pest or weed control at 200 ppm values for a set of molecules.
- System: Alternaria solani
- assay-protocol: Alternaria test (tomatoes)/preventive
- Type: in vivo
- run-parameters: Alternaria solani, 72 h, read-out: Efficacy in %, found
Please give a number only; it is taken to be in %.

O=[N+]([O-])NC1=NCCN1Cc1ccc(Cl)nc1: 30
CNC(=O)c1cc(Cl)cc(C)c1NC(=O)c1cc(Br)nn1-c1ncccc1Cl [(26.1), chloranthraniliprole (rynaxypyr)]: 37
CC(c1ccc(C(F)(F)F)nc1)S(C)(=O)=NC#N (stereo not shown): 51

pest or weed control at 200 ppm value, target or system Alternaria solani, for N#Cc1nn(-c2c(Cl)cc(C(F)(F)F)cc2Cl)c(N)c1[S+]([O-])C(F)(F)F (stereo not shown) : 44
